Give measured cytotoxicity at 70.5 h for each item. Keep answers brief.
Test: Human HepG2 cell viability assay in 384 well format
Type: toxicity, cell-based
Set-up: dose 125 nL, time 70.5 hour; concentration not given beside the values
Settings: HepG2 cells, read-out: Inhibition
Please don't drop the unit; write it after the number.

Known results for molecules:
- CSc1ncccc1C(=O)NCCC(O)c1cccs1 (configuration not stated): -2.95%
- CC(C)c1cc(NC(=O)CN2CCNC(=O)C2)on1: -5.09%
- Cc1csc2c(N3CCC(NCCc4ccnn4C)CC3)ncnc12: 6.94%
- CCc1noc(C2CCCCN2C(=O)c2cccnc2)n1 (configuration not stated): -6.76%
- COCCN1C[C@@H]2OCCN(c3ccnc(N(C)C)n3)[C@@H]2C1: 0.722%

// input: 2 molecules below; output: cytotoxicity at 70.5 h for each
1. CN1CCN(C2CCN(C(=O)CCC3CCCC3)CC2)CC1
2. Cc1ccc(C(=O)N2C[C@H]3CCC[C@@]3(COc3ccccn3)C2)nc1

1. -6.88%
2. 11.3%
